system.tested: Ribosomal protein S6 kinase alpha-2 (Homo sapiens)
stated.conditions: at 1 µM
Each entry below lists one item and its recorded residual activity value.
Numbers only here, please. The scale is %.

Some molecules with known residual activity results, for comparison:
>>> number("CC(=O)O/N=C1\\C(=C2\\C(=O)Nc3cc(Br)ccc32)Nc2ccccc21")
71
>>> number("Cc1nc(-c2ccccc2)c(-c2ccncc2)o1")
100
>>> number("Cc1nc2cc3nc(-c4cccs4)cnc3cc2n1C")
107
>>> number("COc1ccc(S(=O)(=O)N(CCO)c2ccccc2CN(C)C/C=C/c2ccc(Cl)cc2)cc1")
106
>>> number("O=C1NC(=O)c2cc(Nc3ccc(F)cc3)c(Nc3ccc(F)cc3)cc21")
103

Give a short answer stating reported residual activity for O=C1Nc2ccc(Br)cc2/C1=C\c1cc2c([nH]1)CCCC2 .
79

Give a short answer stating reported residual activity for Cc1cc(Nc2nc(-c3ccccc3)nc3ccccc23)n[nH]1 .
29
